- testTarget: human H3 receptor (Homo sapiens)
- Construct: purchased Perkin Elmer ES-392-M400UA; host or cells: CHO-K1 cells (recombinant expression), membrane preparation
- Sequence (Q9Y5N1 whole entry): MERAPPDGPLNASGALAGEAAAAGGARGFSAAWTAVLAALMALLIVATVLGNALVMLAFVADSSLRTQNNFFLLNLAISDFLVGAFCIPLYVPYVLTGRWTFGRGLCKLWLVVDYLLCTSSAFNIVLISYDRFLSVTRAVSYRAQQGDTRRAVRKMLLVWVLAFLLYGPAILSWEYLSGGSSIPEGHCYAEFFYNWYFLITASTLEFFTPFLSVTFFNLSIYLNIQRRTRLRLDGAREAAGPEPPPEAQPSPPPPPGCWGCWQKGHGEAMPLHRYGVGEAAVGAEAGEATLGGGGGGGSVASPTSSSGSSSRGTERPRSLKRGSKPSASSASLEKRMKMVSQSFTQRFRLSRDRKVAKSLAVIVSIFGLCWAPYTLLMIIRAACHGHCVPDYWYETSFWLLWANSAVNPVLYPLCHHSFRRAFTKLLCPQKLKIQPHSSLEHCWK
- assayProtocol: H3 Receptor Binding Test
- experimentalSetup: 50% inhibition of R(−)-α-methyl[3H]histamine (1 nM) binding; membrane preparation of human H3 receptor-expressing CHO-K1 cells
Listed here: items and their measured pIC50.
Note on units: pIC50 is unitless, being -log10 of a concentration expressed in mol/L.

// solved cases for pIC50 follow
Param item = COc1ccc(N2C(=O)CCc3cc(OC4CCN(C(C)(C)C)CC4)ccc32)cn1 [Compound No. 65] ; retrieve measured pIC50.
7.92

Name the reported pIC50 value associated with the compound COc1ccc(N2C(=O)CCc3cc(OCCCN4CCC[C@H]4C)ccc32)cc1C#N [Compound No. 33]
8.40

Name the recorded pIC50 for O=C1CCc2cc(OC3CCN(C4CCC4)CC3)ccc2N1c1cc(F)cc(F)c1 [Compound No. 68] .
9.14

Recorded pIC50 of C[C@@H]1CCCN1CCCOc1ccc2c(c1)CCC(=O)N2c1ccn(C)c(=O)c1 [Compound No. 54] , please.
8.32

# pIC50 lookup, item C[C@@H]1CCCN1CCCOc1ccc2c(c1)CCC(=O)N2c1ccccn1 [Compound No. 34]
8.09

Using the record for O=C1CCc2cc(OC3CCN(C4CCC4)CC3)ccc2N1c1cnc2ccccc2c1 [Compound No. 58] , report its pIC50.
8.80

# pIC50 lookup, item CC(C)(C)N1CCC(Oc2ccc3c(c2)CCC(=O)N3c2ccc(F)cc2)CC1 [Compound No. 66]
8.43

pIC50 lookup needed for C[C@@H]1CCCN1CCCOc1ccc2c(c1)CCC(=O)N2c1ccc(C(=O)N2CCCC2)cc1 [Compound No. 14] , thanks.
8.24

Would you kindly share the measured pIC50 for C[C@@H]1CCCN1CCCOc1ccc2c(c1)CCC(=O)N2c1ccc(C(=O)N(C)C)cc1 [Compound No. 13] ?
8.08

I'd like to know its pIC50. The compound in question is C[C@@H]1CCCN1CCCOc1ccc2c(c1)CCC(=O)N2c1ccc(-c2cnco2)cc1 [Compound No. 19]
8.40

---
Entry under review: CC(C)(C)N1CCC(Oc2ccc3c(c2)CCC(=O)N3c2cccc(C#N)c2)CC1 [Compound No. 63] . Reported pIC50?
8.21

Which pIC50 value belongs to C[C@@H]1CCCN1CCCOc1ccc2c(c1)CCC(=O)N2c1ccc(C(=O)C2CC2)cc1 [Compound No. 16] ?
7.96

Given the entry C[C@@H]1CCCN1CCCOc1ccc2c(c1)CCC(=O)N2c1ccc2c(c1)OCC2 [Compound No. 45] , report its measured pIC50.
8.64

Which pIC50 is reported for this compound? Cc1cc(OCCCN2CCC[C@H]2C)cc2c1N(c1ccc(F)cc1)C(=O)CC2 [Compound No. 86]
7.92

Look up pIC50 for this compound: C[C@@H]1CCCN1CCCOc1cc(Cl)c2c(c1)CCC(=O)N2c1ccc(F)cc1 [Compound No. 85]
7.96

Reported pIC50 for C[C@@H]1CCCN1CCCOc1ccc2c(c1)CCC(=O)N2c1cc(Cl)cc(C#N)c1 [Compound No. 31] : what is it?
8.72

Fill in the blank: the reported pIC50 of COc1ccccc1N1C(=O)CCc2cc(OCCCN3CCC[C@H]3C)ccc21 [Compound No. 23] is ____.
8.92
